Provenance of the data: patent US12054497B2

ASSAY EXPLANATION: Pharmacokinetic evaluation on mice, intragastric (PO) administration (Test Example 6)
Type: in vivo
PARTICULARS: mouse, plasma; PO 15 mg/kg, male CD-1 mice; read-out: F (bioavailability)
Mark yes (1) for reported bioavailability of 60% or greater; mark no (0) for anything smaller.

Task item: Does bioavailability meet or surpass 60% for C=CC(=O)N1C[C@@H]2C(=O)N(C)c3c(c4cc(Cl)c(-c5c(O)cccc5F)nc4n(-c4c(C)ccnc4C(C)C)c3=O)N2C[C@H]1C (single isomer, unassigned) [Compound Z27-2] ?
Reply: yes (1)

Task item: Does bioavailability meet or surpass 60% for C=CC(=O)N1CCN2c3c(c(=O)n(-c4c(C)ccnc4C(C)C)c4nc(-c5c(O)cccc5F)c(F)cc34)N(C)C(=O)[C@H]2C1 (single isomer, unassigned) [Compound Z9-2] ?
Reply: yes (1)

Task item: Does bioavailability meet or surpass 60% for C=CC(=O)N1CCN2c3c(c(=O)n(-c4c(C)ccnc4C(C)C)c4nc(-c5c(O)cccc5F)c(Cl)cc34)N(C)C(=O)[C@H]2C1 (single isomer, unassigned) [Compound Z25-2] ?
Reply: yes (1)

Task item: Does bioavailability meet or surpass 60% for C=CC(=O)N1CCN2c3c(c(=O)n(-c4c(C(C)C)ncnc4C(C)C)c4nc(-c5c(O)cccc5F)c(Cl)cc34)N(C)C(=O)[C@H]2C1 [Compound Z48] ?
Reply: no (0)

---

TARGET SYSTEM: KRas G12C (Homo sapiens (Human), UniProt P01116, G12C)
Sequence (P01116-2 other isoform, or with tags, fused parts or gaps G12C): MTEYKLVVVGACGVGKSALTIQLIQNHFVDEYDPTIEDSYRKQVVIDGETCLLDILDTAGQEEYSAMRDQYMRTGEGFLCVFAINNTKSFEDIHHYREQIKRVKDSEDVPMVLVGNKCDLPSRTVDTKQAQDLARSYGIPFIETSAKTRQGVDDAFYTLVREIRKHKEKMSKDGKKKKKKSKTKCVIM
ASSAY EXPLANATION: Nucleotide exchange assay (NEA)-HTRF, SOS1 catalyzed displacement of GDP by GTP (Test Example 4)
pIC50: −log10 of the molar value.
Mark Fulfilled for reported pIC50 of 7 or greater; mark Not fulfilled for anything smaller.

Task item: Does pIC50 meet or surpass 7 for C=CC(=O)N1CCN2c3c(c(=O)n(-c4c(C(C)C)ncnc4C(C)C)c4c(F)c(-c5c(O)cccc5F)c(Cl)cc34)NC(=O)[C@H]2C1 (single isomer, unassigned) [Compound Z37-1] ?
Reply: Fulfilled

Task item: Does pIC50 meet or surpass 7 for C=CC(=O)N1C[C@@H]2C(=O)N(C)c3c(c4cc(Cl)c(-c5c(O)cccc5F)nc4n(-c4c(C)ccnc4C(C)C)c3=O)N2C[C@H]1C [Compound Z27] ?
Reply: Fulfilled

Task item: Does pIC50 meet or surpass 7 for [2H]C([2H])([2H])N1C(=O)[C@H]2CN(C(=O)C=C)CCN2c2c1c(=O)n(-c1c(C)ccnc1C(C)C)c1nc(-c3c(O)cccc3F)c(Cl)cc21 (single isomer, unassigned) [Compound Z26-1] ?
Reply: Not fulfilled

Task item: Does pIC50 meet or surpass 7 for [2H]C([2H])([2H])N1C(=O)[C@H]2CN(C(=O)C=C)CCN2c2c1c(=O)n(-c1c(C(C)C)ncnc1C(C)C)c1c(F)c(-c3c(O)cccc3F)c(Cl)cc21 (single isomer, unassigned) ?
Reply: Not fulfilled

Task item: Does pIC50 meet or surpass 7 for C=CC(=O)N1CCN2c3c(c(=O)n(-c4c(C)ccnc4C(C)C)c4nc(-c5c(O)cccc5F)c(F)cc34)OC[C@H]2C1 (atropisomer, axis not shown) [Compound Z1-2] ?
Reply: Not fulfilled

Task item: Does pIC50 meet or surpass 7 for C=CC(=O)N1CCN2c3c(c(=O)n(-c4c(C)ccnc4C(C)C)c4nc(-c5c(O)cccc5F)c(Cl)cc34)N(C)C(=O)[C@H]2C1 (single isomer, unassigned) [Compound Z25-2] ?
Reply: Fulfilled

Task item: Does pIC50 meet or surpass 7 for C=CC(=O)N1C[C@@H]2C(=O)N(C)c3c(c4cc(F)c(-c5c(O)cccc5F)nc4n(-c4c(C#N)cccc4C(C)C)c3=O)N2C[C@H]1C (atropisomer, axis not shown) [Compound Z38-1] ?
Reply: Fulfilled

Task item: Does pIC50 meet or surpass 7 for C=CC(=O)N1C[C@@H]2C(=O)N(C)c3c(c4cc(Cl)c(-c5c(O)cccc5F)nc4n(-c4c(C)ccnc4C(C)C)c3=O)N2C[C@H]1C (single isomer, unassigned) [Compound Z27-1] ?
Reply: Not fulfilled

Task item: Does pIC50 meet or surpass 7 for [2H]C([2H])([2H])N1C(=O)[C@H]2CN(C(=O)C=C)CCN2c2c1c(=O)n(-c1c(C)ccnc1C(C)C)c1nc(-c3c(O)cccc3F)c(Cl)cc21 [Compound Z26] ?
Reply: Fulfilled

Task item: Does pIC50 meet or surpass 7 for C=CC(=O)N1C[C@@H]2C(=O)N(C)c3c(c4cc(Cl)c(-c5c(O)cccc5F)nc4n(-c4c(C)ccnc4C(C)C)c3=O)N2C[C@H]1C (single isomer, unassigned) [Compound Z27-2] ?
Reply: Fulfilled

Task item: Does pIC50 meet or surpass 7 for C=CC(=O)N1CCN2c3c(c(=O)n(-c4c(C)ncnc4C(C)C)c4nc(-c5c(O)cccc5F)c(F)cc34)N(C)C(=O)[C@H]2C1 (single isomer, unassigned) [Compound Z21-1] ?
Reply: Not fulfilled

Task item: Does pIC50 meet or surpass 7 for C=CC(=O)N1C[C@@H]2C(=O)N(C)c3c(c4cc(F)c(-c5c(O)cccc5F)nc4n(-c4c(C)ccnc4C(C)C)c3=O)N2C[C@H]1C (single isomer, unassigned) [Compound Z10-2] ?
Reply: Fulfilled

Task item: Does pIC50 meet or surpass 7 for C=CC(=O)N1CCN2c3c(c(=O)n(-c4c(C)ccnc4C(C)C)c4nc(-c5c(O)cccc5F)c(Cl)cc34)NC(=O)[C@H]2C1 [Compound Z24] ?
Reply: Fulfilled

Task item: Does pIC50 meet or surpass 7 for C=CC(=O)N1CCN2c3c(c(=O)n(-c4c(C)ccnc4C(C)C)c4nc(-c5c(O)cccc5F)c(Cl)cc34)N(C)C(=O)[C@H]2C1 (single isomer, unassigned) [Compound Z25-1] ?
Reply: Not fulfilled

Task item: Does pIC50 meet or surpass 7 for C=CC(=O)N1C[C@@H]2C(=O)N(C)c3c(c4cc(Cl)c(-c5c(O)cccc5F)c(F)c4n(-c4c(C(C)C)ncnc4C(C)C)c3=O)N2C[C@H]1C [Compound Z50] ?
Reply: Fulfilled

Task item: Does pIC50 meet or surpass 7 for C=CC(=O)N1C[C@@H]2C(=O)N(C)c3c(c4cc(Cl)c(-c5c(O)cccc5F)c(F)c4n(-c4c(C(C)C)ncnc4C(C)C)c3=O)N2C[C@H]1C (single isomer, unassigned) [Compound Z50-1] ?
Reply: Fulfilled

---

System: NCI-H358 cells with Kras G12C mutation
ASSAY EXPLANATION: Cell proliferation inhibition experiment, 3D spheroid, CellTiter-Glo (Test Example 1)
Format: cell-based, human
PARTICULARS: 5 days
REPORTED PROPERTY: pIC50
pIC50 (log units): -log10 of the concentration in mol/L.

Task item: Dear colleague, I am looking for the recorded pIC50 of the following compound: C=CC(=O)N1CCN2c3c(c(=O)n(-c4c(C)ccnc4C(C)C)c4nc(-c5c(O)cccc5F)c(Cl)cc34)N(C)C(=O)[C@H]2C1 (single isomer, unassigned) [Compound Z25-2]
Reply: 8.52

Task item: Dear colleague, I am looking for the recorded pIC50 of the following compound: C=CC(=O)N1C[C@@H]2C(=O)N(C)c3c(c4cc(F)c(-c5c(O)cccc5F)nc4n(-c4c(C)cnn4C(C)C)c3=O)N2C[C@H]1C (single isomer, unassigned) [Compound Z33-2]
Reply: 7.47

Task item: Dear colleague, I am looking for the recorded pIC50 of the following compound: C=CC(=O)N1CCN2c3c(c(=O)n(-c4c(C)ncnc4C(C)C)c4nc(-c5c(O)cccc5F)c(F)cc34)N(C)C(=O)[C@H]2C1 (single isomer, unassigned) [Compound Z21-2]
Reply: 6.39

Task item: Dear colleague, I am looking for the recorded pIC50 of the following compound: C=CC(=O)N1CCN2c3c(c(=O)n(-c4c(C)ccnc4C(C)C)c4nc(-c5c(O)cccc5F)c(F)cc34)N(CC)C(=O)[C@H]2C1 (single isomer, unassigned) [Compound Z30-1]
Reply: 6.09

Task item: Dear colleague, I am looking for the recorded pIC50 of the following compound: C=CC(=O)N1CC2C(=O)N(C)c3c(c4cc(F)c(-c5c(O)cccc5F)nc4n(-c4c(C(F)(F)F)ccnc4C(C)C)c3=O)N2C[C@H]1C (single isomer, unassigned) [Compound Z49-1]
Reply: 8.05

Task item: Dear colleague, I am looking for the recorded pIC50 of the following compound: [2H]C([2H])([2H])N1C(=O)[C@H]2CN(C(=O)C=C)CCN2c2c1c(=O)n(-c1c(C(C)C)ncnc1C(C)C)c1c(F)c(-c3c(O)cccc3F)c(Cl)cc21 (atropisomer, axis not shown; (aR)) [Compound Z39-1]
Reply: 9.22

Task item: Dear colleague, I am looking for the recorded pIC50 of the following compound: C=CC(=O)N1CCN2c3c(c(=O)n(-c4c(C)ccnc4C(C)C)c4nc(-c5c(O)cccc5F)c(Cl)cc34)NC(=O)[C@H]2C1 (single isomer, unassigned) [Compound Z24-1]
Reply: 7.55

Task item: Dear colleague, I am looking for the recorded pIC50 of the following compound: C=CC(=O)N1C[C@@H]2C(=O)N(C)c3c(c4cc(Cl)c(-c5c(O)cccc5F)c(F)c4n(-c4c(C(C)C)ncnc4C(C)C)c3=O)N2C[C@H]1C (single isomer, unassigned) [Compound Z50-2]
Reply: 6.49

Task item: Dear colleague, I am looking for the recorded pIC50 of the following compound: [2H]C([2H])([2H])N1C(=O)[C@H]2CN(C(=O)C=C)CCN2c2c1c(=O)n(-c1c(C)ccnc1C(C)C)c1nc(-c3c(O)cccc3F)c(Cl)cc21 [Compound Z26]
Reply: 8.70

Task item: Dear colleague, I am looking for the recorded pIC50 of the following compound: C=CC(=O)N1CCN2c3c(c(=O)n(-c4c(C)ncnc4C(C)C)c4nc(-c5c(O)cccc5F)c(F)cc34)N(C)C(=O)[C@H]2C1 (single isomer, unassigned) [Compound Z21-1]
Reply: 7.57

Task item: Dear colleague, I am looking for the recorded pIC50 of the following compound: C=CC(=O)N1C[C@@H]2C(=O)N(C)c3c(c4cc(F)c(-c5c(O)cccc5F)nc4n(-c4c(C#N)cccc4C(C)C)c3=O)N2C[C@H]1C (atropisomer, axis not shown) [Compound Z38-2]
Reply: 6.29

Task item: Dear colleague, I am looking for the recorded pIC50 of the following compound: C=CC(=O)N1CCN2c3c(c(=O)n(-c4c(C)ccnc4C(C)C)c4nc(-c5c(O)cccc5F)c(Cl)cc34)NC(=O)[C@H]2C1 (single isomer, unassigned) [Compound Z24-2]
Reply: 8.52

Task item: Dear colleague, I am looking for the recorded pIC50 of the following compound: C=CC(=O)N1CC2C(=O)N(C)c3c(c4cc(F)c(-c5c(O)cccc5F)nc4n(-c4c(C(F)(F)F)ccnc4C(C)C)c3=O)N2C[C@H]1C (single isomer, unassigned) [Compound Z49-2]
Reply: 7.36

Task item: Dear colleague, I am looking for the recorded pIC50 of the following compound: C=CC(=O)N1C[C@@H]2C(=O)Nc3c(c4cc(F)c(-c5c(O)cccc5F)nc4n(-c4c(C)ccnc4C(C)C)c3=O)N2C[C@H]1C (single isomer, unassigned) [Compound Z35-1]
Reply: 7.43

Task item: Dear colleague, I am looking for the recorded pIC50 of the following compound: C=CC(=O)N1CCN2c3c(c(=O)n(-c4c(C)ccnc4C(C)C)c4nc(-c5c(O)cccc5F)c(F)cc34)N(C)C(=O)[C@H]2C1 (single isomer, unassigned) [Compound Z9-2]
Reply: 7.82

Task item: Dear colleague, I am looking for the recorded pIC50 of the following compound: C=CC(=O)N1C[C@@H]2C(=O)N(C)c3c(c4cc(F)c(-c5c(O)cccc5F)nc4n(-c4c(C#N)cccc4C(C)C)c3=O)N2C[C@H]1C (atropisomer, axis not shown) [Compound Z38-1]
Reply: 8.15

Task item: Dear colleague, I am looking for the recorded pIC50 of the following compound: [2H]C([2H])([2H])N1C(=O)[C@H]2CN(C(=O)C=C)CCN2c2c1c(=O)n(-c1c(C)ccnc1C(C)C)c1nc(-c3c(O)cccc3F)c(Cl)cc21 (single isomer, unassigned) [Compound Z26-2]
Reply: 8.52

Task item: Dear colleague, I am looking for the recorded pIC50 of the following compound: C=CC(=O)N1C[C@@H]2C(=O)N(C)c3c(c4cc(F)c(-c5c(O)cccc5F)nc4n(-c4c(C)ccnc4C(C)C)c3=O)N2C[C@H]1C (single isomer, unassigned) [Compound Z10-1]
Reply: 7.15

Task item: Dear colleague, I am looking for the recorded pIC50 of the following compound: C=CC(=O)N1C[C@@H]2C(=O)Nc3c(c4cc(F)c(-c5c(O)cccc5F)nc4n(-c4c(C)ccnc4C(C)C)c3=O)N2C[C@H]1C (single isomer, unassigned) [Compound Z35-2]
Reply: 8.22

Task item: Dear colleague, I am looking for the recorded pIC50 of the following compound: C=CC(=O)N1C[C@@H]2C(=O)N(C)c3c(c4cc(F)c(-c5c(O)cccc5F)nc4n(-c4c(C)cnn4C(C)C)c3=O)N2C[C@H]1C (single isomer, unassigned) [Compound Z33-1]
Reply: 7.13

Task item: Dear colleague, I am looking for the recorded pIC50 of the following compound: C=CC(=O)N1CCN2c3c(c(=O)n(-c4c(C)ccnc4C(C)C)c4nc(-c5c(O)cccc5F)c(F)cc34)N(CC)C(=O)[C@H]2C1 [Compound Z30]
Reply: 7.29
